- Test system: Jurkat cells
- method_description: MTT assay for cytotoxicity, Jurkat cells
- Type: cell-based, human
- conditions: Homo sapiens, Jurkat; MTT, 72 h
endpoint_name: IC50 (µM)
Give the value, in units of µM, as a plain number.

Enter reported IC50 observed with Jurkat cells for COc1ccc(C(=O)/C=C/c2cnc(-c3ccc(Cl)cc3)nc2)cc1OC
1.5

Turning now to a further molecule:
Enter reported IC50 observed with Jurkat cells for CS(=O)(=O)CCNCc1ccc(-c2ccc3ncnc(Nc4ccc(OCc5cccc(F)c5)c(Cl)c4)c3c2)o1
1.43
